Target: Somatostatin receptor 5 (SSTR5) (human), P35346
Sequence (P35346 whole entry): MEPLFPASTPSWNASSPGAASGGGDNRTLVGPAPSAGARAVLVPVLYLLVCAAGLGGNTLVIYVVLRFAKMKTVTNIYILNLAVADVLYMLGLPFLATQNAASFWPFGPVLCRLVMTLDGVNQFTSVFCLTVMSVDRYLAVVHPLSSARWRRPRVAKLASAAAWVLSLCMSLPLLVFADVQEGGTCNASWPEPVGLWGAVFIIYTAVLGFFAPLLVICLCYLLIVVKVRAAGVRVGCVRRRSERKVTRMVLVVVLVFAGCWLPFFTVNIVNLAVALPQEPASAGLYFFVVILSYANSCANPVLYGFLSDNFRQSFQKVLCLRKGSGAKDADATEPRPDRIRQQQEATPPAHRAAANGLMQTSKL
Assay: competition with 125I-Tyr11 SST14
Settings: L-mesityl alanine (Msa) in place of Phe5; D-Trp at position 7; disulfide bridge between the two cysteines
quantityName: pIC50
The read-out pIC50 is expressed as -log10 of concentration in moles per litre.

# lookup: pIC50 of PCKNFFWKTFTSCK [Cortistatin analogue 4]
8.40
